Reference for the values: PubChem BioAssay (EPA / NIEHS)

Read-out: Transforming Growth Factor (TGFA), TGFA (gene 7039)
Assay: LTEA_HepaRG_TGFA: Life Technologies and Expression Analysis (LTEA) Assay for Transforming Growth Factor (TGFA) using HepaRG (AID 2283532)
Conditions: mRNA level, 48 h; actives raise or lower the signal
Calls of active or inactive are those of the source. The calls were made as follows: active = hit-call score of the fitted dose curve at least 0.9, where 1 is the maximum; inactive = score below 0.9.
Returns: one label drawn from Yes for active, No for inactive

[
  {
    "MOLECULE": "CCOCCOC(C)=O",
    "CLASS": "No"
  },
  {
    "MOLECULE": "O=S(=O)(O)C(F)(F)C(F)(F)C(F)(F)C(F)(F)F",
    "CLASS": "No"
  },
  {
    "MOLECULE": "CC(c1ccc(O)cc1)(c1ccc(O)cc1)c1ccc(O)cc1",
    "CLASS": "No"
  },
  {
    "MOLECULE": "CN(C)c1nc(=O)n(C2CCCCC2)c(=O)n1C",
    "CLASS": "No"
  },
  {
    "MOLECULE": "CCSC(=O)N(CC)C1CCCCC1",
    "CLASS": "No"
  },
  {
    "MOLECULE": "O=C(O)C(F)(F)C(F)(F)C(F)(F)C(F)(F)C(F)(F)C(F)(F)C(F)(F)C(F)(F)C(F)(F)F",
    "CLASS": "Yes"
  }
]

Kindly provide the recorded test outcome for the following molecule: Cc1cc(O)ccc1Cl
No

Assay outcome for O=C(NC(=O)c1c(F)cccc1F)Nc1cc(Cl)c(OC(F)(F)C(F)F)c(Cl)c1 : what was it?
No

Write down the call the test reported for this molecule. Item: O=S(=O)(O)C(F)(F)C(F)(F)C(F)(F)C(F)(F)C(F)(F)C(F)(F)F
No

Just curious, what result did ClC1=C(Cl)[C@]2(Cl)[C@@H]3[C@@H](Cl)[C@H]4O[C@H]4[C@@H]3C1(Cl)C2(Cl)Cl get here?
No

Hi, sorry to bother you, what did the test record for CCCCCCCCCC[N+](C)(C)CCCCCCCCCC ?
No

How was CO/C=C(/C(=O)OC)c1ccccc1COc1cccc(C(F)(F)F)n1 classified in this test?
Yes

Look up the recorded call for CCC(C)(CC)c1cc(NC(=O)c2c(OC)cccc2OC)on1 in this test.
No

----------
Assay: BSK_3C_VCAM1: BioMAP Diversity Plus: 3C Assay for Vascular cell adhesion molecule 1 (VCAM1) Biomarker Activity (AID 2282999)
Settings: BioMAP 3C HUVEC, VCAM1 ELISA, cytokine-stimulated; actives raise or lower the signal
Calls of active or inactive are those of the source. Rule for the calls: active = hit-call score of the fitted dose curve at least 0.9, where 1 is the maximum; inactive = score below 0.9.
Hi there, use one of these labels in your reply, thanks! 1 = active, 0 = inactive

For orientation, consider the following solved cases.
[
  {
    "MOLECULE": "Cc1cccc([N+](=O)[O-])c1",
    "CLASS": 0
  },
  {
    "MOLECULE": "ClC(Cl)=C(c1ccc(Cl)cc1)c1ccc(Cl)cc1",
    "CLASS": 1
  },
  {
    "MOLECULE": "CCC(=O)O[C@H]1CC[C@H]2[C@@H]3CCC4=CC(=O)CC[C@]4(C)[C@H]3CC[C@]12C",
    "CLASS": 1
  },
  {
    "MOLECULE": "CCOCCOC(C)=O",
    "CLASS": 0
  },
  {
    "MOLECULE": "O=NN(c1ccccc1)c1ccccc1",
    "CLASS": 0
  },
  {
    "MOLECULE": "O=S(=O)(O)C(F)(F)C(F)(F)C(F)(F)C(F)(F)F",
    "CLASS": 0
  },
  {
    "MOLECULE": "CC(c1ccc(O)cc1)(c1ccc(O)cc1)c1ccc(O)cc1",
    "CLASS": 1
  },
  {
    "MOLECULE": "ClC1=C(Cl)[C@]2(Cl)[C@@H]3[C@@H](Cl)[C@H]4O[C@H]4[C@@H]3C1(Cl)C2(Cl)Cl",
    "CLASS": 0
  },
  {
    "MOLECULE": "N#Cc1ccc(N(CC(N)=O)CC(F)(F)F)cc1C(F)(F)F",
    "CLASS": 0
  },
  {
    "MOLECULE": "Nc1ccc(-c2ccc(N)cc2)cc1",
    "CLASS": 0
  }
]

Could you please tell me the result logged for O=C(O)C(F)(F)C(F)(F)C(F)(F)C(F)(F)C(F)(F)F in this assay?
0

Could you kindly confirm the outcome this assay logged for CN(C)c1nc(=O)n(C2CCCCC2)c(=O)n1C ?
0

How was Cc1cc(-c2ccc(N)c(C)c2)ccc1N classified in this test?
0

Could you kindly confirm the outcome this assay logged for Clc1ccc(C(Cl)(Cl)Cl)cc1 ?
0

Status in this test for Nn1cnnc1 ?
0

Outcome logged for C[C@]12CCC(=O)C=C1CC[C@@H]1[C@@H]2CC[C@@]2(C)[C@H]1CC[C@]2(C)O in this assay:
0

Just curious, what result did C1CC2OC2CC1C1CO1 (stereo not given) get here?
0

Assay result, entry Oc1ccc(Cl)cc1Cl — outcome?
0

How was O=C(NC(=O)c1c(F)cccc1F)Nc1cc(Cl)c(OC(F)(F)C(F)F)c(Cl)c1 classified in this test?
0

Hi team, can someone confirm the assay call for ClC1=C(Cl)[C@]2(Cl)[C@@H]3[C@H]4C[C@H]([C@@H]5O[C@H]45)[C@@H]3[C@@]1(Cl)C2(Cl)Cl ?
0

Recorded test call requested for CC(C)(O)C(=O)Nc1ccc([N+](=O)[O-])c(C(F)(F)F)c1
0

----------
Read-out: Interleukin-8 (IL8), CXCL8 (gene 3576)
Experiment: BSK_SAg_IL8: BioMAP Diversity Plus: SAg Assay for Interleukin-8 (IL8) Biomarker Activity (AID 2283094)
Conditions: primary human HUVEC with PBMC; actives raise or lower the signal
Method: BSK_SAg is a cell-based, multiplexed-readout assay that uses umbilical vein endothelium and peripheral blood mononuclear cells, a human vascular primary cell co-culture, with measurements taken at 24 hours after chemical dosing in a 96-well plate.BSK_SAg_IL8 is an assay component measured in the BSK_SAg assay. It measures IL-8 antibody related to regulation of gene expression using ELISA technology.Data from the assay component BSK_SAg_IL8 was analyzed into 1 assay endpoint. […]
The source made the active and inactive calls. Rule for the calls: active = hit-call score of the fitted dose curve at least 0.9, where 1 is the maximum; inactive = score below 0.9.
Your reply should match one of these outcome classes. True = active, False = inactive

Reference set (10 entries):
[
  {
    "MOLECULE": "C=CC(N)=O",
    "CLASS": "False"
  },
  {
    "MOLECULE": "CCCCCCCCOC(=O)c1ccccc1C(=O)OCCCCCCCC",
    "CLASS": "False"
  },
  {
    "MOLECULE": "O=S(=O)(O)C(F)(F)C(F)(F)C(F)(F)C(F)(F)C(F)(F)C(F)(F)F",
    "CLASS": "False"
  },
  {
    "MOLECULE": "O=C(NC(=O)c1cc(F)c(F)cc1Cl)Nc1cc(F)ccc1N1CCC(C(=O)O)CC1",
    "CLASS": "False"
  },
  {
    "MOLECULE": "O=C(N[C@H]1CN2CCC1CC2)c1cc2ccoc2cn1",
    "CLASS": "False"
  },
  {
    "MOLECULE": "O=NN(c1ccccc1)c1ccccc1",
    "CLASS": "False"
  },
  {
    "MOLECULE": "CCCCCCOC(=O)c1ccccc1C(=O)OCCCCCC",
    "CLASS": "True"
  },
  {
    "MOLECULE": "Cc1cc(-c2ccc(N)c(C)c2)ccc1N",
    "CLASS": "False"
  },
  {
    "MOLECULE": "Clc1ccc(C(c2ccccc2Cl)C(Cl)(Cl)Cl)cc1 (configuration not stated)",
    "CLASS": "True"
  },
  {
    "MOLECULE": "CC1=C2C[C@H]3[C@@H](CC=C4C[C@@H](O)CC[C@@]43C)[C@@H]2CC[C@]12O[C@@H]1C[C@H](C)CN[C@H]1[C@H]2C",
    "CLASS": "False"
  }
]

Which outcome did this test record for the molecule c1ccc(-c2ccccc2)cc1 ?
False

I'd appreciate the recorded outcome for CCC(C)(CC)c1cc(NC(=O)c2c(OC)cccc2OC)on1 from this test.
False

Please state the recorded outcome for this molecule: Clc1ccc(C(Cl)(Cl)Cl)cc1
False

Returns: the outcome recorded for O=C(NC(=O)c1c(F)cccc1F)Nc1cc(Cl)c(OC(F)(F)C(F)F)c(Cl)c1 in this assay.
False

Dear all, I need the recorded test outcome for Sc1ccccc1 , thank you.
False

Hi, do you know how CCCN(CCC)N=O came out in this test?
False

Could you kindly confirm the outcome this assay logged for ClC1=C(Cl)[C@]2(Cl)[C@@H]3[C@@H]4C[C@@H]([C@H]5O[C@@H]45)[C@@H]3[C@@]1(Cl)C2(Cl)Cl ?
False

Tell me the recorded outcome of this test for CCC(C)(c1ccc(O)cc1)c1ccc(O)cc1 .
True

Test call for this molecule, please: CCOP(=S)(OCC)SCSC(C)(C)C
False

What is the recorded call for this molecule in the test? Nn1cnnc1
False

Entry Cc1ccc(O)c(C)c1 : call = ?
False

Write down the call the test reported for this molecule. Item: Oc1c(Cl)c(Cl)c(Cl)c(Cl)c1Cl
False

Status in this test for C1CC2OC2CC1C1CO1 (configuration not stated) ?
False

Can you look up the reported call for Oc1ccc(C(c2ccc(O)cc2)(C(F)(F)F)C(F)(F)F)cc1 for me?
True
